# System: Rattus norvegicus
# assay explanation: Antiarrhythmic activity in Wistar rat assessed as effect on heart beat at 10 mg/kg, iv after 15 mins
# Assay type: functional
readout label: Activity (min⁻¹)
Respond numerically; units are min⁻¹ and should not be typed.

CN1C(=O)N(CC(O)CN2CCN(c3ccccc3)CC2)C(c2ccccc2)(c2ccccc2)C1=O.Cl (racemic)
263
C=CC(C(=O)OC)N1C(=O)N(CC(O)CN2CCN(c3ccccc3OC)CC2)C(c2ccccc2)(c2ccccc2)C1=O.Cl (racemic)
291
CCOc1ccccc1N1CCN(CC(O)CN2C(=O)N(C)C(=O)C2(c2ccccc2)c2ccccc2)CC1.Cl (racemic)
242

Req: Looking for the measured Activity of COC(=O)CN1C(=O)N(CC(O)CN2CCN(c3ccccc3F)CC2)C(c2ccccc2)(c2ccccc2)C1=O.Cl (racemic) , can you help?
Resp: 281

Req: Let us now turn to COC(=O)C(C)N1C(=O)N(CC(O)CN2CCN(c3ccccc3OC)CC2)C(c2ccccc2)(c2ccccc2)C1=O.Cl (racemic)
Resp: 362
